Target Desc: human active MMP-8 (Homo sapiens, UniProt P22894)
Sequence (P22894 101-467): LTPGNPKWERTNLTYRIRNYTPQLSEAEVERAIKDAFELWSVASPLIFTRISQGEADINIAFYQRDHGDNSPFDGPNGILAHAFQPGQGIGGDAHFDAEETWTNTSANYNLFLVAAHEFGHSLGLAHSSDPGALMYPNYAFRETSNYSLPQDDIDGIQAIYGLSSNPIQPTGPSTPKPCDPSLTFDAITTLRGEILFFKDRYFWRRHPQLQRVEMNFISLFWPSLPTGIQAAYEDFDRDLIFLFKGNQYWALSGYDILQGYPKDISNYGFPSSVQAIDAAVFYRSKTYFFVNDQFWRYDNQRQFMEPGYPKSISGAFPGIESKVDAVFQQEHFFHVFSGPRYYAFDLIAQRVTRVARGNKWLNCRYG
Property Measured: pIC50
Scale explanation: pIC50 corresponds to minus log10 of a concentration expressed in moles per litre.

>  <Smiles Representation>
O=C1NC(=O)C(c2ccc(Oc3ccc(I)cc3)cc2)(N2CCN(CCOCCOCCOCCF)CC2)C(=O)N1

>  <Result Value>
6.84

$$$$

From here, focus on the item given below.
Check human active MMP-8 (Homo sapiens, UniProt P22894) data and give pIC50 for O=C(O)CCN1CCN(C2(c3ccc(Oc4ccc(I)cc4)cc3)C(=O)NC(=O)NC2=O)CC1 .
5.93

* * *

Property Measured: melting point

Check the records and state melting point for O=C1NC(=O)C(c2ccc(I)cc2)(N2CCN(CCO)CC2)C(=O)N1 [5a]
168 to 172 °C

Please report melting point for the following molecule: O=C1NC(=O)C(c2ccc(Oc3ccc(I)cc3)cc2)(N2CCN(CCOCCOCCOCCF)CC2)C(=O)N1 [compound 10]
176 to 177 °C

Supply reported melting point belonging to this molecule: O=C1NC(=O)C(c2ccc(O)c(I)c2)(N2CCN(CCO)CC2)C(=O)N1 [compound 6]
168 to 170 °C (dec.)

Consider the molecule O=C(O)CCN1CCN(C2(c3ccc(Oc4ccc(I)cc4)cc3)C(=O)NC(=O)NC2=O)CC1 [compound 9] . State its measured melting point.
236 to 242 °C (dec.)

Give the reported melting point for this molecule. O=C(O)CCN1CCN(C2(c3ccc(I)cc3)C(=O)NC(=O)NC2=O)CC1 [5b]
139 to 142 °C

* * *

Target Desc: human active MMP-9 (Homo sapiens, UniProt P14780)
Sequence (P14780 107-707 limits assumed): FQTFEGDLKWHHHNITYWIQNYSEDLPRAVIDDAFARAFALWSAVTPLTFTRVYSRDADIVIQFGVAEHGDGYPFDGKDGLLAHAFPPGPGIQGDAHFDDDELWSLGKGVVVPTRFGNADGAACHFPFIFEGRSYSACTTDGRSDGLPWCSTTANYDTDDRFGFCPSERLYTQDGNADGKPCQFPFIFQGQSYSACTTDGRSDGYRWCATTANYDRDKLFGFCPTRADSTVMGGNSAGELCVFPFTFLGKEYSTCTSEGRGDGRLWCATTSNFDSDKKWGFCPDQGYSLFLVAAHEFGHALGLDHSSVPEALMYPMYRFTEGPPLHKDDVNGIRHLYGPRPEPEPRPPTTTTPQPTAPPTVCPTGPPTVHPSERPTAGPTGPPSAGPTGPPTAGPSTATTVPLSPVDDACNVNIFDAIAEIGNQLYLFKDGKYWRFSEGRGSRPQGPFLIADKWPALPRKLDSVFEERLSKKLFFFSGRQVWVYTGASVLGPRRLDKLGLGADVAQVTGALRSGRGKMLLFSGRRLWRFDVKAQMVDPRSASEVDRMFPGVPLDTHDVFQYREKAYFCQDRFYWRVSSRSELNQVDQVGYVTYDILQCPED
Protocol Notes: fluorometric in vitro MMP inhibition assay, MMP-9
Format: biochemical
Condition Info: IC50 MMP-9, mean ± SD of three assays
Property Measured: IC50 (nM)
Record the value in nM, omitting the unit from your answer.

>  <Smiles Representation>
O=C1NC(=O)C(c2ccc(Oc3ccc(I)cc3)cc2)(N2CCN(CCOCCOCCOCCF)CC2)C(=O)N1

>  <Target Desc>
human active MMP-9 (Homo sapiens, UniProt P14780)

>  <Result Value>
17

$$$$
>  <Smiles Representation>
O=C1NC(=O)C(c2ccc(I)cc2)(N2CCN(CCO)CC2)C(=O)N1

>  <Target Desc>
human active MMP-9 (Homo sapiens, UniProt P14780)

>  <Result Value>
550

$$$$
>  <Smiles Representation>
O=C1NC(=O)C(c2ccc(O)c(I)c2)(N2CCN(CCO)CC2)C(=O)N1

>  <Target Desc>
human active MMP-9 (Homo sapiens, UniProt P14780)

>  <Result Value>
1300

$$$$
>  <Smiles Representation>
O=C(O)CCN1CCN(C2(c3ccc(Oc4ccc(I)cc4)cc3)C(=O)NC(=O)NC2=O)CC1

>  <Target Desc>
human active MMP-9 (Homo sapiens, UniProt P14780)

>  <Result Value>
1.3

$$$$

Give reported IC50 value for O=C(O)CCN1CCN(C2(c3ccc(I)cc3)C(=O)NC(=O)NC2=O)CC1
1600

* * *

Target Desc: human active MMP-9 (Homo sapiens, UniProt P14780)
Protocol Notes: fluorometric in vitro MMP inhibition assay, MMP-9
Type: biochemical
Condition Info: IC50 MMP-9 (range given jointly for MMP-2 and -9), summary of Table 1
Item-by-item account of IC50

>  <Smiles Representation>
O=C1NC(=O)C(c2ccc(O)c(I)c2)(N2CCN(CCO)CC2)C(=O)N1

>  <Property Measured>
IC50

>  <Result Value>
0.67 to 1.6 µM

$$$$

Okay, next one:
Item O=C(O)CCN1CCN(C2(c3ccc(I)cc3)C(=O)NC(=O)NC2=O)CC1 : provide IC50
0.67 to 1.6 µM
